biological target: FPRL-1 (Homo sapiens, UniProt P25090); construct: expressed in transfected cells; assay: compound-induced calcium activity on FLIPR Tetra in CHO-Ga16 cells stably expressing FPRL1; assay type: cell-based; settings: efficacy value in brackets under EC50
Sequence (P25090 whole entry): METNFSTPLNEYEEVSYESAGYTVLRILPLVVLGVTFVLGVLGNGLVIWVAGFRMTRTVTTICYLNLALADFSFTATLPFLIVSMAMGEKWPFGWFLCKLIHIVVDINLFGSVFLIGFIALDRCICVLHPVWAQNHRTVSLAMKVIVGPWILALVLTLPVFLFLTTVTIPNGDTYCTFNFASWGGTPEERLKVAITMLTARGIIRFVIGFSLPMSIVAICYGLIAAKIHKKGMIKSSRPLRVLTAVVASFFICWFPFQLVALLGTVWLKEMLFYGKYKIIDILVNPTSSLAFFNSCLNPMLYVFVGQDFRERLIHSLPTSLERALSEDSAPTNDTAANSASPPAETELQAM
readout: FPRL-1 Ga16-CHO (eff)

[[record]]
compound = "CSc1ccc(NC(=O)Nc2ccc3c(c2)C(=O)N(CCCN)[C@H](c2ccc(C#N)cc2)C3)cc1 [Compound 10]"
systemtested = "FPRL-1 (Homo sapiens, UniProt P25090)"
result = "(1.0)"

[[record]]
compound = "CCSc1ccc(NC(=O)Nc2ccc3c(c2)C(=O)N(CCCN)C(c2ccc(C#N)cc2)C3)cc1 (stereo not shown) [Compound 9]"
systemtested = "FPRL-1 (Homo sapiens, UniProt P25090)"
result = "(1.0)"


###

target: FPRL-1 (Homo sapiens, UniProt P25090); construct: expressed in transfected cells; assay: compound-induced calcium activity on FLIPR Tetra in CHO-Ga16 cells stably expressing FPRL1; format: cell-based; conditions: efficacy value in brackets under EC50
readout: FPRL-1 Ga16-CHO (eff)

[[record]]
compound = "CS(=O)(=O)c1ccc(NC(=O)Nc2ccc3c(c2)C(=O)N(CCCN)[C@H](c2ccc(C#N)cc2)C3)cc1"
result = "(1.3)"

[[record]]
compound = "CS(=O)(=O)c1ccc(NC(=O)Nc2ccc3c(c2)C(=O)N(CCc2c[nH]cn2)C(c2ccc(F)cn2)C3)cc1 (stereo not drawn)"
result = "(1.0)"

[[record]]
compound = "CS(=O)(=O)c1ccc(NC(=O)Nc2ccc3c(c2)C(=O)N(CCc2c[nH]cn2)C(c2ccc(C#N)cc2)C3)cc1 (stereo not drawn)"
result = "(1.00)"

[[record]]
compound = "N#Cc1ccc(C2Cc3ccc(NC(=O)Nc4ccc(Br)cc4)cc3C(=O)N2CCCN)cc1 (stereo not drawn)"
result = "(1.00)"


###

biological target: FPRL-1 (Homo sapiens, UniProt P25090); assay: compound-induced calcium activity on FLIPR Tetra in CHO-Ga16 cells stably expressing FPRL1; details: tested at 0.61 to 10,000 nM
Provide the reported pEC50 of each item.
Numbers only, as −log10 of the molar value.

[[record]]
compound = "CC(=O)c1ccc(NC(=O)Nc2ccc3c(c2)C(=O)N(CCc2c[nH]cn2)C(c2ccc(Cl)nc2)C3)cc1 (stereo not drawn)"
readout = "pEC50"
numericvalue = 7.62

[[record]]
compound = "CS(=O)(=O)c1ccc(NC(=O)Nc2ccc3c(c2)C(=O)N(CCc2c[nH]cn2)C(c2ccc(C#N)cc2)C3)cc1 (stereo not drawn)"
readout = "pEC50"
numericvalue = 7.70


Query compound follows.
Short answer for CSc1ccc(NC(=O)Nc2ccc3c(c2)C(=O)N(CCc2c[nH]cn2)C(c2ccc(Cl)o2)C3)cc1 (stereo not drawn) : pEC50 was 7.77
